Provenance of the data: patent US20220175942A1

Biological target: CCL2_HUMAN (human, UniProt P13500 24-99)
Sequence (P13500 24-99): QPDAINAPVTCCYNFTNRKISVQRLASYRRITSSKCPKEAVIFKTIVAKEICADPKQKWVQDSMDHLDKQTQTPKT
Assay: BLI
QUANTITY: Kd (nM)
Give the value in nM but do not write nM after it.

Which Kd is listed for P546_AMBCA (other) ENTQQEEEDYDYGTDTCPFPVLANKTNKAKFVGCHQKCNGGDQKLTDGTACYVVERKVWDRMTPMLWYSCPLGECKNGVCEDLRKKEECRKGNGEEK ?
83

Which Kd is listed for P991_AMBCA (other) ENGEGTTQPDYDNSTDYYNYEDFKCTCPAPHLNNTNGTVMKPIGCYYTCNVTRCTAPDTYPCYNLTEHQAKNLTTSPTTLCAVGNCDHGICVPNGTKELCFKAPNLEE ?
12.2

Which Kd is listed for P1181_AMBMA (other) EEREDDNDYGGGCPFVVLGNGTHAKPAGCSHLCNGAPETLDNIECYNVTEEVAKRMTPDIPYTCWLGWCSKGECKRDNRTEVCYRGSERE ?
2.21

Which Kd is listed for P985_AMBPA (other) DEESEELGASTDVDYEELDANCTCPAPALTSTRNNKHYPLGCIYNCSSYNCTIPDGTPCYVLTLGEVKEHLQIGSTVPNCTCGLCRNGTCVSNGTVEECFAVEEIEET ?
16.8
